// reported IC50 per item
Target Or System: Recombinant human PI3Kγ (full length human PI3K p110γ) (Homo sapiens, UniProt P48736)
Construct: full length human PI3K p110γ fused with a His6-tag at the C-terminus; His6 (C); purchased ALEXIS BIOCHEMICALS #201-055-C010; host or cells: S. frugiperda 9 insect cells
Sequence (P48736 whole entry, the tested form may be a part): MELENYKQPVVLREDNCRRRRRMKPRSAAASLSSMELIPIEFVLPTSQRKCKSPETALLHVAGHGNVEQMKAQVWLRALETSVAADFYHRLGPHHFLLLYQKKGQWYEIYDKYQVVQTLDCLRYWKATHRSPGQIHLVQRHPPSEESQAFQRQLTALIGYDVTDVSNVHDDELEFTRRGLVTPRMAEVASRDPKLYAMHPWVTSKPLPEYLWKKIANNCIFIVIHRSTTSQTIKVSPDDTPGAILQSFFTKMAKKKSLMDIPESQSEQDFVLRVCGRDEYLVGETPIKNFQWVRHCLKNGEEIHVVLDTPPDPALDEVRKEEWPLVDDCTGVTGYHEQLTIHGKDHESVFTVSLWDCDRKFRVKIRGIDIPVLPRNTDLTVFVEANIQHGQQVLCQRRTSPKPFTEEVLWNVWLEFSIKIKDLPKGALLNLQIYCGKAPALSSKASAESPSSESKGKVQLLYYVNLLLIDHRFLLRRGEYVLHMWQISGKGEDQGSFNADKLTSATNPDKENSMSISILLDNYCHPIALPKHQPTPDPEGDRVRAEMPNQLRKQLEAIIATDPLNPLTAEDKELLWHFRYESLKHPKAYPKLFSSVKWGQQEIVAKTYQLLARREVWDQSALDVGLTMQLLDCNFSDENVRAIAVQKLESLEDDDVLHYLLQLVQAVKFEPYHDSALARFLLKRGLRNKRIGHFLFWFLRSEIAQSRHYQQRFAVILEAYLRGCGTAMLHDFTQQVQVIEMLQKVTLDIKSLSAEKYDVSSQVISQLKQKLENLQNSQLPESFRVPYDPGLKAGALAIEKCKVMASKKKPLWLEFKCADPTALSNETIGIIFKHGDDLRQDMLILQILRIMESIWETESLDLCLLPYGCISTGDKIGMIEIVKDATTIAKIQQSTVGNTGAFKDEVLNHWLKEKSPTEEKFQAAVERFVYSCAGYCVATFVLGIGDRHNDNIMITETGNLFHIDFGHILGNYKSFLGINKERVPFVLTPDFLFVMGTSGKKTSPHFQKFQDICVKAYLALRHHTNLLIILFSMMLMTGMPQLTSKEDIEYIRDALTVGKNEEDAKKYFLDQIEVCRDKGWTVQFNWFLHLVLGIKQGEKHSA
Method Summary: Kinase assay of PI3Kγ (solid-phase lipid kinase assay)
Format: biochemical
Protocol Conditions: activity class of IC50; read-out: In vitro PI3K-γ inhibitory activity
Procedure: [Determination of IC50 Values of Compounds in Kinase Assay of PI3Kγ] Chemicals and Assay Materials LABORATORIES (Toronto, Canada). […] The plates were subsequently air-dried by incubation for at least 2 hours in a fume hood. […] MicroScint PS™ (PACKARD) scintillation mix was added at 100 μl/well, and radioactivity was counted by using a TopCount™ (PACKARD) scintillation counter. […]

{"columns": ["Structure Smiles String", "Target Or System", "IC50"],
 "data": [
  ["COc1c(OCCCC(=O)N2CCOCC2)ccc2c1N=C(/C=C(\\O)c1cccnc1)N1CCN=C21", "Recombinant human PI3Kγ (full length human PI3K p110γ) (Homo sapiens, UniProt P48736)", "< 100 nM"],
  ["CC(=O)Nc1ccc(C(=O)NC2=Nc3cc(N4CCOCC4)ccc3C3=NCCN23)cn1", "Recombinant human PI3Kγ (full length human PI3K p110γ) (Homo sapiens, UniProt P48736)", "< 100 nM"],
  ["O=C(NC1=Nc2cc(O)ccc2C2=NCCN12)c1cccnc1", "Recombinant human PI3Kγ (full length human PI3K p110γ) (Homo sapiens, UniProt P48736)", "100 to 500 nM"]
]}

Numbers sourced from patent US7511041B2.
